The compounds listed here are annotated with their relative viability.
Tested on: PC-14
RUN_DESCRIPTION: relative viability (nuclei count vs DMSO), 5 days (fraction); higher = more cells survive
EXPERIMENTAL_CONDITIONS: first compound 8 µM
API note: the answer field is a bare number with no unit suffix.

The cases that follow already have their relative viability on record.
COMPOUND	RESULT_NUMBER
O=c1[nH]c2ccccc2n1C1CCN(CCCC(c2ccc(F)cc2)c2ccc(F)cc2)CC1 [Pimozide] + COc1cc2c(Oc3ccc(NC(=O)C4(C(=O)Nc5ccc(F)cc5)CC4)cc3F)ccnc2cc1OCCCN1CCOCC1 [Foretinib] (partner 0.25 µM)	1.02
O=c1[nH]c2ccccc2n1C1CCN(CCCC(c2ccc(F)cc2)c2ccc(F)cc2)CC1 [Pimozide] + CC(=O)Nc1cccc(-n2c(=O)n(C3CC3)c(=O)c3c(Nc4ccc(I)cc4F)n(C)c(=O)c(C)c32)c1 [Trametinib] (partner 0.02 µM)	0.62
O=c1[nH]c2ccccc2n1C1CCN(CCCC(c2ccc(F)cc2)c2ccc(F)cc2)CC1 [Pimozide] + Nc1ncn([C@H]2C[C@H](O)[C@@H](CO)O2)c(=O)n1 [Decitabine] (partner 2 µM)	0.231
O=c1[nH]c2ccccc2n1C1CCN(CCCC(c2ccc(F)cc2)c2ccc(F)cc2)CC1 [Pimozide] + N=C(N)NC(=N)NCCc1ccccc1 [Phenformin] (partner 250 µM)	0.517
O=c1[nH]c2ccccc2n1C1CCN(CCCC(c2ccc(F)cc2)c2ccc(F)cc2)CC1 [Pimozide] + Cc1nc(NC(=O)N2CCC[C@H]2C(N)=O)sc1-c1ccnc(C(C)(C)C(F)(F)F)c1 [Alpelisib] (partner 2 µM)	0.955

Continue with the compound presented below.
Query: Need relative viability of O=c1[nH]c2ccccc2n1C1CCN(CCCC(c2ccc(F)cc2)c2ccc(F)cc2)CC1 [Pimozide] + CC(C)C[C@H](NC(=O)[C@H](Cc1ccccc1)NC(=O)c1cnccn1)B(O)O [Bortezomib] (partner 0.002 µM) , thanks.
Reply: 0.81

====

Tested on: LCLC-103H
RUN_DESCRIPTION: relative viability (nuclei count vs DMSO), 5 days (fraction); higher = more cells survive
EXPERIMENTAL_CONDITIONS: first compound 8 µM
Criterion: relative viability strictly less than 0.5. Met: met. Not met: not met.

A selection of reference data follows.
COMPOUND	GROUP_LABEL
O=c1[nH]c2ccccc2n1C1CCN(CCCC(c2ccc(F)cc2)c2ccc(F)cc2)CC1 [Pimozide] + N=C(N)NC(=N)NCCc1ccccc1 [Phenformin] (partner 250 µM)	met
O=c1[nH]c2ccccc2n1C1CCN(CCCC(c2ccc(F)cc2)c2ccc(F)cc2)CC1 [Pimozide] + Cc1cc(Nc2cc(N3CCN(C)CC3)nc(Sc3ccc(NC(=O)C4CC4)cc3)n2)n[nH]1 [Tozasertib] (partner 0.1 µM)	met

Query: Strictly below 0.5 in relative viability? O=c1[nH]c2ccccc2n1C1CCN(CCCC(c2ccc(F)cc2)c2ccc(F)cc2)CC1 [Pimozide] + Cc1nc(Nc2ncc(C(=O)Nc3c(C)cccc3Cl)s2)cc(N2CCN(CCO)CC2)n1 [Dasatinib] (partner 0.075 µM)
Reply: not met

====

Test system: NCI-H1355
RUN_DESCRIPTION: relative viability (nuclei count vs DMSO), 5 days (fraction); higher = more cells survive
EXPERIMENTAL_CONDITIONS: first compound 8 µM
The compounds listed here are annotated with their relative viability.

The cases that follow already have their relative viability on record.
COMPOUND	MEASUREMENT_TARGET	RESULT
O=c1[nH]c2ccccc2n1C1CCN(CCCC(c2ccc(F)cc2)c2ccc(F)cc2)CC1 [Pimozide] + Cc1nc(Nc2ncc(C(=O)Nc3c(C)cccc3Cl)s2)cc(N2CCN(CCO)CC2)n1 [Dasatinib] (partner 0.075 µM)	NCI-H1355	0.732
O=c1[nH]c2ccccc2n1C1CCN(CCCC(c2ccc(F)cc2)c2ccc(F)cc2)CC1 [Pimozide] + Cc1cc(Nc2cc(N3CCN(C)CC3)nc(Sc3ccc(NC(=O)C4CC4)cc3)n2)n[nH]1 [Tozasertib] (partner 0.1 µM)	NCI-H1355	0.414

Continue with the compound presented below.
Query: // map O=c1[nH]c2ccccc2n1C1CCN(CCCC(c2ccc(F)cc2)c2ccc(F)cc2)CC1 [Pimozide] + Nc1nc2[nH]cc(CCc3ccc(C(=O)N[C@@H](CCC(=O)O)C(=O)O)cc3)c2c(=O)[nH]1 [Pemetrexed] (partner 0.2 µM) to recorded relative viability (system: NCI-H1355)
Reply: 1.01

Attribution: the supplement of paper PMC10307832
